Consider the following compounds and their measured pKi readings.
# ASSAY_SYSTEM: human orexin-2 receptor (Homo sapiens (Human))
# ASSAY_EXPLANATION: Human orexin 2 receptor radioligand binding ([3H]-EMPA competition)
# ASSAY_CONDITIONS: HEK293 cells stably expressing human orexin-2 receptor; [3H]-EMPA 5 nM final; read-out: OR-2 Ki
FYI, pKi means -log10 of a concentration in mol per litre.

Some solved entries appear below for comparison.
{"COMPOUND": "Cc1cc(C)nc(N2C[C@@H]3CCN(C(=O)c4cccc(F)c4-n4cccn4)C[C@@H]32)n1 [Example 155]", "RECORDED_MEASUREMENT": 7.24}
{"COMPOUND": "Cc1cnc(-n2nccn2)c(C(=O)N2CC[C@H]3CN(c4nc(C)cc(C)n4)[C@H]3C2)c1 [Example 160]", "RECORDED_MEASUREMENT": 6.43}
{"COMPOUND": "O=C(c1cccc(F)c1-n1nccn1)N1CC[C@H]2CN(c3cnc4ccccc4n3)[C@H]2C1 [Example 116]", "RECORDED_MEASUREMENT": 7.55}

Next item in the queue.
According to the records, this compound Cc1nccnc1N1C[C@@H]2CCN(C(=O)c3c(F)cccc3-n3nccn3)C[C@@H]21 [Example 106] displays pKi of 5.00

* * *

# ASSAY_SYSTEM: human orexin-2 receptor (Homo sapiens (Human), UniProt O43614)
# Sequence (O43614 whole entry): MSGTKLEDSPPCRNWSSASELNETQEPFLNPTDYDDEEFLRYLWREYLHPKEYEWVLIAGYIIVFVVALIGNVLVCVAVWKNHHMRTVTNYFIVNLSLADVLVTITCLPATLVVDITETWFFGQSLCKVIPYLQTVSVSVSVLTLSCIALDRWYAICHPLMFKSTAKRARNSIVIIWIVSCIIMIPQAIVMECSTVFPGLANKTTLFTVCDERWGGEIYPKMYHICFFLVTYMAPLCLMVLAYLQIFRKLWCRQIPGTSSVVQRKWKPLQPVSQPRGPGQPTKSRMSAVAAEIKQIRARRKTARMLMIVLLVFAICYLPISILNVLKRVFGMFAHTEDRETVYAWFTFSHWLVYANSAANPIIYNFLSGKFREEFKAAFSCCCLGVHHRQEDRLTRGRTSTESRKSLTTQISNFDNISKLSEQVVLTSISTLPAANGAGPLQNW
# ASSAY_EXPLANATION: Human orexin 2 receptor radioligand binding ([3H]-EMPA competition)
# ASSAY_CONDITIONS: HEK293 cells stably expressing human orexin-2 receptor; [3H]-EMPA 5 nM final; read-out: OR-2 Ki
RECORDED_METRIC: pKi
FYI, pKi means -log10 of a concentration in mol per litre.

Some solved entries appear below for comparison.
{"COMPOUND": "COc1ccc(C(=O)N2CC[C@H]3CN(c4cc(C)cc(C)n4)[C@H]3C2)c(-n2nccn2)c1 [Example 149]", "RECORDED_MEASUREMENT": 6.72}
{"COMPOUND": "Cc1ccc(-n2nccn2)c(C(=O)N2CC3CN(c4nccc(-c5ccccc5)n4)C3C2)c1 (stereo not drawn) [Example 69]", "RECORDED_MEASUREMENT": 7.21}
{"COMPOUND": "Cc1nc(N2C[C@@H]3CCN(C(=O)c4ccccc4-n4nccn4)C[C@@H]32)nc(C)c1C [Example 270]", "RECORDED_MEASUREMENT": 7.96}

According to the records, this compound CN(C)c1ccnc(N2C[C@@H]3CCN(C(=O)c4cccc(F)c4-n4nccn4)C[C@@H]32)c1 [Example 144] displays pKi of 5.55

According to the records, this compound COc1ccc(-n2nccn2)c(C(=O)N2CC[C@H]3CN(c4cc(N(C)C)ccn4)[C@H]3C2)c1 [Example 150] displays pKi of 6.27

According to the records, this compound Cc1cccc(C(=O)N2CC[C@H]3CN(c4cc(C(F)(F)F)ccn4)[C@H]3C2)c1-n1nccn1 [Example 147] displays pKi of 7.04

* * *

# ASSAY_SYSTEM: human orexin-2 receptor (Homo sapiens (Human), UniProt O43614)
# ASSAY_EXPLANATION: Human orexin 2 receptor radioligand binding ([3H]-EMPA competition)
# ASSAY_CONDITIONS: HEK293 cells stably expressing human orexin-2 receptor; [3H]-EMPA 5 nM final; read-out: OR-2 Ki
RECORDED_METRIC: Ki (nM)
Value expressed in nM; do not type the unit.

{"COMPOUND": "Cc1cnc(C)c(N2C[C@@H]3CCN(C(=O)c4cccc(F)c4-n4nccn4)C[C@@H]32)n1 [Example 99]", "ASSAY_SYSTEM": "human orexin-2 receptor (Homo sapiens (Human), UniProt O43614)", "RECORDED_MEASUREMENT": 96}
{"COMPOUND": "Cc1cnc(N2C[C@@H]3CCN(C(=O)c4cc(F)ccc4-n4nccn4)C[C@@H]32)cn1 [Example 104]", "ASSAY_SYSTEM": "human orexin-2 receptor (Homo sapiens (Human), UniProt O43614)", "RECORDED_MEASUREMENT": 342}
{"COMPOUND": "Cc1ccc(N2C[C@@H]3CCN(C(=O)c4cc(F)ccc4-n4nccn4)C[C@@H]32)nc1 [Example 131]", "ASSAY_SYSTEM": "human orexin-2 receptor (Homo sapiens (Human), UniProt O43614)", "RECORDED_MEASUREMENT": 250}
{"COMPOUND": "Cc1cc(C)nc(N2CC3CN(C(=O)c4ccccc4-n4nccn4)CC32)n1 (stereo not shown) [Example 66]", "ASSAY_SYSTEM": "human orexin-2 receptor (Homo sapiens (Human), UniProt O43614)", "RECORDED_MEASUREMENT": 163}

According to the records, this compound O=C(c1cccc(F)c1-n1nccn1)N1CC[C@H]2CN(c3nc4cc(Cl)ccc4o3)[C@H]2C1 [Example 123] displays Ki of 45

According to the records, this compound O=C(c1cc(F)ccc1-c1ncccn1)N1CC[C@H]2CN(c3cnc4ccccc4n3)[C@H]2C1 [Example 33] displays Ki of 51

Numbers sourced from patent US8680275B2.
